Target: human CD33 S323A (human, UniProt P20138 18-364)
Sequence (P20138 18-364 S323A limits assumed): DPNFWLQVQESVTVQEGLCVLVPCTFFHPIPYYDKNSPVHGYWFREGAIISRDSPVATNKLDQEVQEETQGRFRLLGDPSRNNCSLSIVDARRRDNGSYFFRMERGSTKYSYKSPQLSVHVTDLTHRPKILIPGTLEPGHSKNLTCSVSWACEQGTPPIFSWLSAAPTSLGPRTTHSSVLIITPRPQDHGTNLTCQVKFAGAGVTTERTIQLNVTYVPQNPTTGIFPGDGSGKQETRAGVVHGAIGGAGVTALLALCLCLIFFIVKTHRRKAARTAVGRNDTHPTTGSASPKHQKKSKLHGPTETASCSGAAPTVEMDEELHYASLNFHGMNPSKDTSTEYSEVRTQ
Experiment: flow cytometry, alanine scan
Provide the recorded Mean % WT Binding for the entries that follow.

Just so you know, measured Mean % WT Binding for Refmab #1 (antibody, V domains shown, The alanine scan used IgG or Fab; also called hP67.6) VH: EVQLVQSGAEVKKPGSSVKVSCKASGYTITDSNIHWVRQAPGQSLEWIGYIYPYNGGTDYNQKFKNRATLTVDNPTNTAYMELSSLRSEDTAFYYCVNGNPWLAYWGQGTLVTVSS VL: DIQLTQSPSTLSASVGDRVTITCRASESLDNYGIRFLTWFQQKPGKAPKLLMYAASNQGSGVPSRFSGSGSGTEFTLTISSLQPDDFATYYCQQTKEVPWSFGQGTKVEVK came out at 95.2 % of WT

Just so you know, measured Mean % WT Binding for Refmab #4 (antibody, V domains shown, The alanine scan used IgG or Fab) VH: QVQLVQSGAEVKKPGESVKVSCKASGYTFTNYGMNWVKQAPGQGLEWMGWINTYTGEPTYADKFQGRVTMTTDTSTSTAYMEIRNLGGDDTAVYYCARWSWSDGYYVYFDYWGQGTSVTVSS VL: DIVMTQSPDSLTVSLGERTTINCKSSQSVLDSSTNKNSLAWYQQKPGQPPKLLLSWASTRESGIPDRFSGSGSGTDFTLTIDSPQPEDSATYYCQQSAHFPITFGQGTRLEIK came out at 103 % of WT

Just so you know, measured Mean % WT Binding for Refmab #3 (antibody, V domains shown, The alanine scan used IgG or Fab) VH: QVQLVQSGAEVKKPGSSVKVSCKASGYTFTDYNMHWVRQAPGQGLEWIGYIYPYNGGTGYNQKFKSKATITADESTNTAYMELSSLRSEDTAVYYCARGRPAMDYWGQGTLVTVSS VL: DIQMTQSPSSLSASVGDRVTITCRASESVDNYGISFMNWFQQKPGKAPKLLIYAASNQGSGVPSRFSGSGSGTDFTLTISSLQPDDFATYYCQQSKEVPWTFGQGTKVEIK came out at 115 % of WT

Sourced from patent US20260242735A1
